TARGET_ENTITY: UniProt:P43405
MEASURE: IC50
Could you give the number and then its unit, please?

# input compound: O=C(O)CCCCN(CCCC1CCCCC1)S(=O)(=O)/C=C/c1ccc(NC(=O)C2CCC(C(C(=O)O)C(=O)O)CC2)cc1 (stereo unspecified) ; wanted: its IC50 38 µM

----------
METHOD_DESCRIPTION: PROTAC activity at E3 ubiquitin ligase (unknown origin)/STAT5 (unknown origin) assessed as […]
MEASURE: pEC50
Remember the convention: pEC50 equals -log10 of concentration in molar.

# input compound: CN(CCCC#Cc1cccc2c1CN(C1CCC(=O)NC1=O)C2=O)C(=O)CCN(C(=O)[C@@H]1CCCN1C(=O)[C@H](NC(=O)c1cc2cc(C(F)(F)P(=O)(O)O)ccc2s1)C(C)(C)C)c1ccc(-c2nccs2)cc1 (stereo partly specified) ; wanted: its pEC50 7.00
